Observed Ki for hCA XII (Homo sapiens), reported per entry below.

>  <SAMPLE_SMILES>
NS(=O)(=O)c1ccc(NC(=O)Nc2ccc(OCc3cn(CCCS(=O)(=O)[O-])nn3)cc2)cc1.[Na+]

>  <Ki>
49 nM

$$$$
>  <SAMPLE_SMILES>
NS(=O)(=O)c1ccc(NCc2cn(CCCS(=O)(=O)[O-])nn2)cc1.[Na+]

>  <Ki>
433 nM

$$$$
>  <SAMPLE_SMILES>
NS(=O)(=O)c1ccc(CNC(=O)NCc2cn(CCCS(=O)(=O)[O-])nn2)cc1.[Na+]

>  <Ki>
16.4 nM

$$$$
>  <SAMPLE_SMILES>
NS(=O)(=O)c1ccc(C(=O)NCc2cn(CCCS(=O)(=O)[O-])nn2)cc1.[Na+]

>  <Ki>
9.5 nM

$$$$
>  <SAMPLE_SMILES>
CCC(=O)Nc1cc(S(N)(=O)=O)ccc1OCc1cn(CCCS(=O)(=O)[O-])nn1.[Na+]

>  <Ki>
47.1 nM

$$$$
>  <SAMPLE_SMILES>
CCC(=O)Nc1cc(S(N)(=O)=O)ccc1OCc1cn(CCCCS(=O)(=O)O)nn1

>  <Ki>
7.3 nM

$$$$
